- System: A549
- assay-method-text: A549 assay: screening of cancer cell growth inhibiting compound
- Assay type: cell-based
- settings: Homo sapiens, 72 h; A549 cells, three days, WST-8; read-out: A549 IC50
pIC50: −log10 of the molar value.
assay-readout: pIC50

// below: answered molecules
[Q] Fill in the recorded pIC50 for this molecule, with A549 as test system: `CN(c1cc(NCC2CCOCC2)c2ncc(-c3ccc(C(=O)NC4CC4)cc3)n2n1)C1CCCCC1`
[A] ≥ 7.30

[Q] Now give it for CC(=O)NCC1CN(c2cc(NCC3CCOCC3)c3ncc(-c4ccc(C(=O)NC5CC5)cc4)n3n2)CCO1 (stereo not drawn) too.
[A] 5.00 to 6.00

[Q] Now give it for `N#Cc1ccc(-c2cn3c(-c4ccc(C(=O)NC5CC5)cc4)cnc3c(NCCOCCO)n2)cc1` too.
[A] 5.00 to 6.00

[Q] Now give it for `CN1CCN(c2cc(NCC3CCOCC3)c3ncc(-c4ccc(C(=O)NC5CC5)cc4)n3n2)CC1` too.
[A] 6.30 to 7.30

[Q] Now give it for `O=C(NC1CC1)c1ccc(-c2cnc3c(NCC4CCOCC4)cc(NC45CC6CC(CC4C6)C5)nn23)cc1` too.
[A] ≥ 7.30

[Q] Now give it for `O=C(NC1CC1)c1ccc(-c2cnc3c(NCC4CCOCC4)cc(NCC(F)(F)F)nn23)cc1` too.
[A] 6.30 to 7.30

[Q] Now give it for CC1CCCCC1Nc1cc(NCC2CCOCC2)c2ncc(-c3ccc(C(=O)NC4CC4)cc3)n2n1 (stereo not drawn) too.
[A] ≥ 7.30

[Q] Now give it for `Cn1cncc1CNc1cc(NC2CCCCC2)nn2c(-c3ccc(C(=O)NC4CC4)cc3)cnc12` too.
[A] 6.00 to 6.30

Further cases:
[Q] Fill in the recorded pIC50 for this molecule, with A549 as test system: `Nc1ccc(Oc2cc(NCC3CCOCC3)c3ncc(-c4ccc(C(=O)NC5CC5)cc4)n3n2)cc1`
[A] 6.30 to 7.30

[Q] Now give it for `O=C(NC1CC1)c1ccc(-c2cnc3c(NCc4ccco4)cc(NC4CCCCC4)nn23)cc1` too.
[A] 6.30 to 7.30

[Q] Now give it for `NC(=O)c1ccc(-c2cc(NCC3CCOCC3)c3ncc(-c4ccc(C(=O)NC5CC5)cc4)n3n2)cc1` too.
[A] 5.00 to 6.00

[Q] Now give it for `CC(C)CNc1nc(-c2cccnc2)cn2c(-c3ccc(C(=O)NC4CC4)cc3)cnc12` too.
[A] 6.00 to 6.30

[Q] Now give it for `CC(C)N(C)c1cc(NCC2CCOCC2)c2ncc(-c3ccc(C(=O)NC4CC4)cc3)n2n1` too.
[A] 6.30 to 7.30

[Q] Now give it for `CC(C)CNc1nc(-c2ccc(CNS(C)(=O)=O)cc2)cn2c(-c3ccc(C(=O)NC4CC4)cc3)cnc12` too.
[A] 6.00 to 6.30

[Q] Now give it for `O=C(NC1CC1)c1ccc(-c2cnc3c(NCC4CCOCC4)cc(N4CCOCC4)nn23)cc1` too.
[A] 6.30 to 7.30

* * *

Documented pIC50 across a set of molecules
- experimental-target: TTK (Homo sapiens)
- Sequence (P33981 whole entry): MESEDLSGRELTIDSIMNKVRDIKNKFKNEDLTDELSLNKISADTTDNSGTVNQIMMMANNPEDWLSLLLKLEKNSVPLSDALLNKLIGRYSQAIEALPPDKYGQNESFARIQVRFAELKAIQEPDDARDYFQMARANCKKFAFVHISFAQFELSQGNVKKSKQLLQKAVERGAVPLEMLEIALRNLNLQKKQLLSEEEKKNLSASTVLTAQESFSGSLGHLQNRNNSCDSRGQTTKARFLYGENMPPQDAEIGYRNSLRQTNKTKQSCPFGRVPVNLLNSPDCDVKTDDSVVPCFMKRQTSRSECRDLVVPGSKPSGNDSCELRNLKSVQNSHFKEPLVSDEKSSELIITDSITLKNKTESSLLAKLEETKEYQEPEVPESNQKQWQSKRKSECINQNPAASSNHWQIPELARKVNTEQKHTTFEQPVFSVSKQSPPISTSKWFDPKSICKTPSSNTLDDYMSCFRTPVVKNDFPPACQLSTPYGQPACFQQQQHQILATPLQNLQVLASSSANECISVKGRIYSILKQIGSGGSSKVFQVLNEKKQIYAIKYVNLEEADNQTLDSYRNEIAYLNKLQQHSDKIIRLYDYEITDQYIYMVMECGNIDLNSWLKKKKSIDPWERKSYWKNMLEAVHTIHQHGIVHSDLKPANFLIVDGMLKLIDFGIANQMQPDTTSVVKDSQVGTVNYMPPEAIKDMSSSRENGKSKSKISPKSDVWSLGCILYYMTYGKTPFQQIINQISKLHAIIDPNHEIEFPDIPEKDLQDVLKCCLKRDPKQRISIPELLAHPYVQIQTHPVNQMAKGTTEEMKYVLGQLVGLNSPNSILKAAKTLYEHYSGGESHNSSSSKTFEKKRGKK
- assay-method-text: TTK assay: screening of TTK kinase activity suppressing action using p38 MAPK peptide
- Assay type: biochemical
- settings: p38 MAPK peptide substrate; read-out: TTK IC50
By convention, pIC50 is the negative base-10 log of a molar concentration.

[Q] Quick check: pIC50 of `O=C(NC1CC1)c1ccc(-c2cnc3c(NCC4CCOCC4)cc(Oc4cccc(F)c4)nn23)cc1` ?
[A] 8.19

[Q] Now give it for O=C(NC1CC1)c1ccc(-c2cnc3c(NCC4CCOCC4)cc(N4CCCC4CO)nn23)cc1 (stereo not shown) too.
[A] 8.06

[Q] Now give it for O=C(NC1CC1)c1ccc(-c2cnc3c(NCC4CCOCC4)cc(NC4CCCC(F)(F)C4)nn23)cc1 (stereo not shown) too.
[A] 8.40

[Q] Now give it for `N#CC1CCN(c2cc(NCC3CCOCC3)c3ncc(-c4ccc(C(=O)NC5CC5)cc4)n3n2)CC1` too.
[A] 8.06
